Test system: TAOK1
Settings: concentration: 1 μM, replicates: in singlicate; n = 1;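 further: KINOMEscan kinase panel screen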
Let's look at some compounds and their measured %Inh.
Report only the number, with the unit % understood.

Example compounds with recorded %Inh:
# compound, assay.target, assay.value
measured = [
    ("Cn1cc(-c2ccc3c(c2)CCN3C(=O)Cc2cccc(Cl)c2)c2c(N)ncnc21 [GSK2606590]", "TAOK1", 0),
    ("CN1CCN(CCCNc2nccc(-c3c(-c4ccc(F)cc4)nn4cc(C(F)(F)F)ccc34)n2)CC1 [GW621581]", "TAOK1", 4),
    ("C[C@@H]1CC[C@@H](C(=O)Nc2ccccc2)CN1c1cc(-c2ccc3c(N)n[nH]c3c2)nc(N)n1 [GSK2286062]", "TAOK1", 0),
]

[ask] Please look up its %Inh: NCCCC(NC(=O)c1cc(Br)c(-c2ccnc3[nH]ccc23)s1)c1ccccc1.O=C(O)C(F)(F)F.O=C(O)C(F)(F)F (centres unmarked) [GSK1287544]
[reply] 34

[ask] Another: Cc1occc1-c1ncc(OC[C@@H](N)Cc2c[nH]c3ccccc23)cc1-c1ccc2[nH]nc(C)c2c1.O=C(O)C(F)(F)F [GSK682037]
[reply] 97.7

[ask] Another: Cc1cccc(NC(=O)Nc2ccc(Oc3ncnc4ccn(C)c34)cc2)c1
[reply] 0

[ask] Another: COc1ccc(Nc2nccc(NCCNC(=O)c3cc4ccccc4s3)n2)cc1 [GSK1379896]
[reply] 0

[ask] Another: COc1ccc(Nc2nccc(N3CCC(NC(=O)Nc4cccc(OC)c4)C3)n2)cc1 (centres unmarked) [GSK1379742]
[reply] 0

* * *

System: AAK1
Settings: concentration: 1 μM, replicates: in singlicate; n = 1
Let's look at some compounds and their measured %Inh.
Report only the number, with the unit % understood.

# compound, readout.units, assay.value
data = [
    ("COc1ccc(Nc2nccc(N3CCC(NC(=O)Nc4cccc(OC)c4)C3)n2)cc1 (stereo not drawn) [GSK1379742]", "%", 4),
    ("Nc1ncnc2c1nc(-c1ccccc1)n2-c1ccccc1 [SKF-97293]", "%", 0),
    ("CC(C)(C)c1ccc2nccc(Nc3cccc(O)c3)c2c1 [GW856795]", "%", 0),
    ("COc1cccc(C(=O)Nc2cccc(Oc3ccc4nc(NC(=O)C5CC5)cn4n3)c2)c1", "%", 27),
]

[ask] Please look up its %Inh: c1ccc(-c2n[nH]cc2Nc2ccnc3ccccc23)nc1 [GW694077]
[reply] 82

[ask] Another: Cc1ccc(C(=O)N2CC[C@@H](O)C2)cc1-n1c(C)cc(OCc2ccc(F)cc2F)c(Br)c1=O
[reply] 0

[ask] Another: Cn1cc(-c2[nH]c3cc(NC(=O)[C@H](N)C4CCCCC4)cc4c3c2C=NNC4=O)cn1
[reply] 99.5

[ask] Another: Cl.Cl.NCC(C(=O)Nc1cc(Br)c(-c2ccnc3[nH]ccc23)s1)c1ccccc1 (stereo not drawn) [GSK1269851]
[reply] 78

[ask] Another: O=C(Nc1ccccc1F)NC1CCN(c2ccnc(Nc3ccc(F)cc3)n2)CC1 [GSK1379800]
[reply] 17

* * *

Test system: CDKL5
Settings: concentration: 1 μM, replicates: in singlicate; n = 1
Let's look at some molecules and their measured %Inh.
Give your result as the value with the unit written after it.

Example molecules with recorded %Inh:
# molecule, readout.type, assay.value
data = [
    ("CCn1c(-c2nonc2N)nc2c(C#CC(C)(C)O)ncc(OCCCCN)c21.O=C(O)C(F)(F)F.O=C(O)C(F)(F)F [GSK507274]", "%Inh", "10%"),
    ("Cc1cccc(NC(=O)Nc2ccc(Oc3ncnc4ccn(C)c34)cc2)c1", "%Inh", "0%"),
    ("NCCCC(NC(=O)c1cc(Br)c(-c2ccnc3[nH]ccc23)s1)c1ccccc1.O=C(O)C(F)(F)F.O=C(O)C(F)(F)F (stereo not shown) [GSK1287544]", "%Inh", "0%"),
    ("Fc1ccc(-c2ncn(C3CCNCC3)c2-c2ccnc(Oc3ccc(-c4ccccc4)cc3)n2)cc1 [SB-245391]", "%Inh", "0%"),
]

[ask] Please look up its %Inh: CCn1c(-c2nonc2N)nc2c(C#CC(C)(C)O)nc(OC[C@H](N)c3ccccc3)cc21 [GSK943949]
[reply] 12%

[ask] Another: CN(c1ccc(NC(=O)Nc2cc(C(F)(F)F)ccc2F)cc1)c1ccnc(Nc2ccc(S(N)(=O)=O)cc2)n1 [GW809893]
[reply] 26%

[ask] Another: COc1cccc(C(=O)Nc2cccc(Oc3ccc4nc(NC(=O)C5CC5)cn4n3)c2)c1
[reply] 0%
